Cited source: patent US5399691A

- method description: Solubility in water-soluble solvent by HPLC (Test Example 2)
- Assay type: physicochemical
- assay conditions: physiological saline; read-out: Solubility, test solution B
Counter-ions that a name gives are not always drawn.
Please go through the items and note down their solubility.
Give the number; µg/mL is assumed, so skip it.

-- ask Specify reported solubility for the compound shown: `NCC(=O)Nc1ccccc1C(=O)NC(=O)Nc1ccc(Oc2ncc(Cl)cn2)c(Cl)c1`
-- reply 160

-- ask Specify reported solubility for the compound shown: NCC(=O)Nc1ccccc1C(=O)NC(=O)Nc1ccc(Oc2ncc(Br)cn2)c(Cl)c1 [Compound No. 1, hydrochloride]
-- reply 50

-- ask Specify reported solubility for the compound shown: `Cc1cc(NC(=O)NC(=O)c2ccccc2NC(=O)CN)ccc1Oc1ncc(Br)cn1`
-- reply 380

-- ask Specify reported solubility for the compound shown: Nc1ccccc1C(=O)NC(=O)Nc1ccc(Oc2ncc(Br)cn2)c(Cl)c1 [compound 1, reference compound]
-- reply 0.06

-- ask Specify reported solubility for the compound shown: `Cc1cc(NC(=O)NC(=O)c2ccccc2NC(=O)CN(C)C)ccc1Oc1ncc(Br)cn1`
-- reply 3000

-- ask Specify reported solubility for the compound shown: `C[C@@H](N)C(=O)Nc1ccccc1C(=O)NC(=O)Nc1ccc(Oc2ncc(Br)cn2)c(Cl)c1`
-- reply 140

* * *

- Test system: P-388 leukemia
- method description: Antitumor activity against P-388 leukemia, increase life span (Test Example 1)
- Format: in vivo, BDF1 mouse (murine)
- assay conditions: Mus musculus, P388; intravenous, 25 mg/kg, days 1, 5 and 9
Where a name gives a salt, the structure may show the parent alone.
quantity name: ILS at 25 mg/kg (%)
Give the number; % is assumed, so skip it.

-- ask Specify reported ILS at 25 mg/kg for the compound shown: C[C@H](N)C(=O)Nc1ccccc1C(=O)NC(=O)Nc1ccc(Oc2ncc(Br)cn2)c(Cl)c1 [Compound No. 3]
-- reply 134

-- ask Specify reported ILS at 25 mg/kg for the compound shown: Cc1cc(NC(=O)NC(=O)c2ccccc2NC(=O)[C@H](C)N)ccc1Oc1ncc(Br)cn1 [compound 49]
-- reply 190

-- ask Specify reported ILS at 25 mg/kg for the compound shown: Cc1cc(NC(=O)NC(=O)c2ccccc2NC(=O)CN)ccc1Oc1ncc(Br)cn1 [Compound No. 7]
-- reply 143

-- ask Specify reported ILS at 25 mg/kg for the compound shown: CSCC[C@H](N)C(=O)Nc1ccccc1C(=O)NC(=O)Nc1ccc(Oc2ncc(Br)cn2)c(Cl)c1 [Compound No. 5]
-- reply 152

-- ask Specify reported ILS at 25 mg/kg for the compound shown: Cc1cc(NC(=O)NC(=O)c2ccccc2NC(=O)CN(C)C)ccc1Oc1ncc(Br)cn1 [compound 20]
-- reply 155

-- ask Specify reported ILS at 25 mg/kg for the compound shown: C[C@@H](N)C(=O)Nc1ccccc1C(=O)NC(=O)Nc1ccc(Oc2ncc(Br)cn2)c(Cl)c1 [Compound No. 4]
-- reply 95

-- ask Specify reported ILS at 25 mg/kg for the compound shown: NCC(=O)Nc1ccccc1C(=O)NC(=O)Nc1ccc(Oc2ncc(Cl)cn2)c(Cl)c1 [compound 9]
-- reply 152

-- ask Specify reported ILS at 25 mg/kg for the compound shown: NCC(=O)Nc1ccccc1C(=O)NC(=O)Nc1ccc(Oc2ncc(Br)cn2)c(Cl)c1 [Compound No. 1, hydrochloride]
-- reply 219

-- ask Specify reported ILS at 25 mg/kg for the compound shown: CN(C)CC(=O)Nc1ccccc1C(=O)NC(=O)Nc1ccc(Oc2ncc(Br)cn2)c(Cl)c1 [Compound No. 2, hydrochloride]
-- reply 143

-- ask Specify reported ILS at 25 mg/kg for the compound shown: NCC(=O)NCC(=O)Nc1ccccc1C(=O)NC(=O)Nc1ccc(Oc2ncc(Br)cn2)c(Cl)c1 [compound 8]
-- reply 243

* * *

- Tested on: P-388 leukemia
- method description: Antitumor activity against P-388 leukemia, increase life span (Test Example 1)
- Assay type: in vivo, BDF1 mouse (murine)
- assay conditions: Mus musculus, P388, ip; intraperitoneal, 6.25 mg/kg, days 1, 5 and 9
quantity name: ILS at 6.25 mg/kg (%)
Give the number; % is assumed, so skip it.

-- ask Specify reported ILS at 6.25 mg/kg for the compound shown: CCc1cc(NC(=O)NC(=O)c2ccccc2N)ccc1Oc1ncc(Br)cn1 [compound 3, reference compound]
-- reply 26

-- ask Specify reported ILS at 6.25 mg/kg for the compound shown: Cc1cc(NC(=O)NC(=O)c2ccccc2N)ccc1Oc1ncc(Cl)cn1 [compound 2, reference compound]
-- reply 34

-- ask Specify reported ILS at 6.25 mg/kg for the compound shown: Nc1ccccc1C(=O)NC(=O)Nc1ccc(Oc2ncc(Cl)cn2)c(C(F)(F)F)c1 [compound 4, reference compound]
-- reply 71

-- ask Specify reported ILS at 6.25 mg/kg for the compound shown: Nc1ccccc1C(=O)NC(=O)Nc1ccc(Oc2ncc(Br)cn2)c(Cl)c1 [compound 1, reference compound]
-- reply 50

* * *

Please go through the items and note down their solubility.
- method description: Solubility in water-soluble solvent by HPLC (Test Example 2)
- Format: physicochemical
- assay conditions: distilled water, water; read-out: Solubility, test solution A
Counter-ions that a name gives are not always drawn.
Give the number; µg/mL is assumed, so skip it.

-- ask Specify reported solubility for the compound shown: NCC(=O)NCC(=O)Nc1ccccc1C(=O)NC(=O)Nc1ccc(Oc2ncc(Br)cn2)c(Cl)c1 [compound 8]
-- reply 1800

-- ask Specify reported solubility for the compound shown: Cc1cc(NC(=O)NC(=O)c2ccccc2NC(=O)CN(C)C)ccc1Oc1ncc(Br)cn1 [compound 20]
-- reply 19000

-- ask Specify reported solubility for the compound shown: CN(C)CC(=O)Nc1ccccc1C(=O)NC(=O)Nc1ccc(Oc2ncc(Br)cn2)c(Cl)c1 [Compound No. 2, hydrochloride]
-- reply 2500

-- ask Specify reported solubility for the compound shown: CSCC[C@H](N)C(=O)Nc1ccccc1C(=O)NC(=O)Nc1ccc(Oc2ncc(Br)cn2)c(Cl)c1 [Compound No. 5]
-- reply 1200

* * *

- Tested on: P-388 leukemia
- method description: Antitumor activity against P-388 leukemia, increase life span (Test Example 1)
- Assay type: in vivo, BDF1 mouse (murine)
- assay conditions: Mus musculus, P388; intravenous, 12.5 mg/kg, days 1, 5 and 9
- Description: The compounds of the present invention are effective against experimental murine tumors such as P-388 leukemia, L-1210 leukemia, B-16 melanoma, M-5076 sarcoma, Colon 38, Colon 26 and Lewis lung carcinoma. […] Generally, the effectiveness of a drug for these experimental murine tumors is evaluated by the extended median survival time of a test mouse group to which a test drug is administered on the basis of the median survival time of a control mouse group to which no drug is administered. […]
Where a name gives a salt, the structure may show the parent alone.
Use ILS at 12.5 mg/kg to assign classes; range list: low interval: < 50%; middle interval: ≥ 50% and < 90%; high interval: ≥ 90%

-- ask Looking at NCC(=O)Nc1ccccc1C(=O)NC(=O)Nc1ccc(Oc2ncc(Br)cn2)c(Cl)c1 [Compound No. 1, hydrochloride] , which class would you pick?
-- reply middle interval

-- ask Looking at `Cc1cc(NC(=O)NC(=O)c2ccccc2NC(=O)CN)ccc1Oc1ncc(Br)cn1` , which class would you pick?
-- reply high interval

-- ask Looking at `C[C@H](N)C(=O)Nc1ccccc1C(=O)NC(=O)Nc1ccc(Oc2ncc(Br)cn2)c(Cl)c1` , which class would you pick?
-- reply middle interval

-- ask Looking at `Cc1cc(NC(=O)NC(=O)c2ccccc2NC(=O)CN(C)C)ccc1Oc1ncc(Br)cn1` , which class would you pick?
-- reply low interval

-- ask Looking at `C[C@@H](N)C(=O)Nc1ccccc1C(=O)NC(=O)Nc1ccc(Oc2ncc(Br)cn2)c(Cl)c1` , which class would you pick?
-- reply low interval

-- ask Looking at `Cc1cc(NC(=O)NC(=O)c2ccccc2NC(=O)[C@H](C)N)ccc1Oc1ncc(Br)cn1` , which class would you pick?
-- reply middle interval

-- ask Looking at `CSCC[C@H](N)C(=O)Nc1ccccc1C(=O)NC(=O)Nc1ccc(Oc2ncc(Br)cn2)c(Cl)c1` , which class would you pick?
-- reply low interval

-- ask Looking at `NCC(=O)Nc1ccccc1C(=O)NC(=O)Nc1ccc(Oc2ncc(Cl)cn2)c(Cl)c1` , which class would you pick?
-- reply middle interval

-- ask Looking at `NCC(=O)Nc1ccccc1C(=O)NC(=O)Nc1ccc(Oc2ncc(Cl)cn2)c(C(F)(F)F)c1` , which class would you pick?
-- reply high interval

* * *

Please go through the items and note down their solubility.
- method description: Solubility in water-soluble solvent by HPLC (Test Example 2)
- Format: physicochemical
- assay conditions: distilled water, water; read-out: Solubility, test solution A
- Procedure: About 2 mg of each of the compounds of the present invention shown in the following Table 7 was accurately weighed, and was completely dissolved in 2 ml of N,N-dimethylacetamide. The content was then transferred into a 10 ml-measuring flask, and its volume was made constant with acetonitrile. […] The above standard solution and the measuring liquid were analyzed by high pressure liquid chromatography (HPLC), and their solubilities were measured by absolute calibration curve method. […]
Where a name gives a salt, the structure may show the parent alone.
Give the number; µg/mL is assumed, so skip it.

-- ask Specify reported solubility for the compound shown: Cc1cc(NC(=O)NC(=O)c2ccccc2N)ccc1Oc1ncc(Cl)cn1 [compound 2, reference compound]
-- reply 0.8

-- ask Specify reported solubility for the compound shown: C[C@H](N)C(=O)Nc1ccccc1C(=O)NC(=O)Nc1ccc(Oc2ncc(Br)cn2)c(Cl)c1 [Compound No. 3]
-- reply 2800

-- ask Specify reported solubility for the compound shown: C[C@@H](N)C(=O)Nc1ccccc1C(=O)NC(=O)Nc1ccc(Oc2ncc(Br)cn2)c(Cl)c1 [Compound No. 4]
-- reply 2000

-- ask Specify reported solubility for the compound shown: CNCC(=O)Nc1ccccc1C(=O)NC(=O)Nc1ccc(Oc2ncc(Br)cn2)c(C)c1 [compound 53]
-- reply 5000

-- ask Specify reported solubility for the compound shown: NCC(=O)Nc1ccccc1C(=O)NC(=O)Nc1ccc(Oc2ncc(Cl)cn2)c(Cl)c1 [compound 9]
-- reply 1600

-- ask Specify reported solubility for the compound shown: NCC(=O)Nc1ccccc1C(=O)NC(=O)Nc1ccc(Oc2ncc(Br)cn2)c(Cl)c1 [Compound No. 1, hydrochloride]
-- reply 1200

-- ask Specify reported solubility for the compound shown: Nc1ccccc1C(=O)NC(=O)Nc1ccc(Oc2ncc(Cl)cn2)c(C(F)(F)F)c1 [compound 4, reference compound]
-- reply 0.4

-- ask Specify reported solubility for the compound shown: NCC(=O)Nc1ccccc1C(=O)NC(=O)Nc1ccc(Oc2ncc(Cl)cn2)c(C(F)(F)F)c1 [compound 6]
-- reply 1400

-- ask Specify reported solubility for the compound shown: Cc1cc(NC(=O)NC(=O)c2ccccc2NC(=O)[C@H](C)N)ccc1Oc1ncc(Br)cn1 [compound 49]
-- reply 7600
